All values here come from patent US10022453B2.

Experimental system: human kinesin spindle protein KSP/Eg5 (Homo sapiens, UniProt P52732)
Construct: The motor domain of the human kinesin spindle protein KSP/Eg5
Test description: Inhibition of the kinesin spindle protein KSP/Eg5 (ATPase, malachite green)
Condition info: 10 nM KSP motor domain, 500 μM ATP, 2 h RT
Labelling field: enter 1 if recorded IC50 is less than 3 nM. Enter 0 if it equals or exceeds that cut-off.

Compound	Class
CC(C)(C)[C@H](c1cc(-c2cc(F)ccc2F)cn1Cc1ccccc1)N(CCCN)C(=O)CSCCC(N)C(=O)O.O=C(O)C(F)(F)F.O=C(O)C(F)(F)F (stereo partly shown)	1
CC(C)(C)[C@H](c1nc(-c2cc(F)ccc2F)cn1Cc1ccccc1)N(CC[C@H](N)C(=O)NCCNC(=O)CSC[C@H](N)C(=O)O)C(=O)CO.O=C(O)C(F)(F)F	1
CC(C)(C)[C@H](c1nc(-c2cc(F)ccc2F)cn1Cc1ccccc1)N(CC(CN)CS)C(=O)CO (single isomer, unassigned; isomer 2) [Example 94]	0
CC(C)(C)[C@H](c1cc(-c2cc(F)ccc2F)cn1Cc1ccccc1)N(CCCN)C(=O)c1ccc(F)cc1	0
CC(C)(C)[C@H](c1cc(-c2cc(F)ccc2F)cn1Cc1ccccc1)N(CC[C@H](N)C(=O)NCCCCCCN1C(=O)CC(SC[C@H](N)C(=O)O)C1=O)C(=O)CO (stereo partly shown)	1

Ask: Confirm or reject: IC50 of CC(=O)N[C@@H](CSCC(=O)N(CCCNC(=O)[C@H](C)N)[C@@H](c1cc(-c2cc(F)ccc2F)cn1Cc1ccccc1)C(C)(C)C)C(=O)O lies strictly below 3 nM
Reply: 0

Ask: I wonder whether CC(C)(C)[C@H](c1cc(-c2cc(F)ccc2F)cn1Cc1ccccc1)N(CCCN)C(=O)c1ccc(C(F)(F)F)cc1 has IC50 below 3 nM. Can you tell?
Reply: 0

Ask: Dear colleague, could you confirm whether IC50 of CC(C)(C)[C@H](c1nc(-c2cc(F)ccc2F)cn1Cc1ccccc1)N(CC[C@H](N)C(=O)NCCN)C(=O)CO.O=C(O)C(F)(F)F.O=C(O)C(F)(F)F falls below 3 nM? Thanks.
Reply: 0

Ask: # check: IC50 < 3 nM for CC(C)(C)[C@H](c1nc(-c2cc(F)ccc2F)cn1Cc1ccccc1)N(CC[C@H](N)C(=O)NCCC(=O)Nc1ccc(N2C(=O)CC(SC[C@H](N)C(=O)O)C2=O)cc1)C(=O)CO (stereo partly shown)
Reply: 0

Ask: Quick check: does CC(C)(C)[C@H](c1cc(-c2cc(F)ccc2F)cn1Cc1ccccc1)N(CCCN)C(=O)CO have IC50 under 3 nM?
Reply: 1

Ask: I wonder whether CC(C)[C@H](NC(=O)CCCCCN1C(=O)CC(SC[C@H](N)C(=O)O)C1=O)C(=O)N[C@@H](CCCNC(N)=O)C(=O)N[C@@H](CCCCNC(=O)[C@@H](N)CCN(C(=O)CO)[C@@H](c1nn(-c2cc(F)ccc2F)cc1Cc1ccccc1)C(C)(C)C)C(=O)O (stereo partly shown) has IC50 below 3 nM. Can you tell?
Reply: 0

----------
Experimental system: human kinesin spindle protein KSP/Eg5 (Homo sapiens, UniProt P52732)
Construct: The motor domain of the human kinesin spindle protein KSP/Eg5
Test description: Inhibition of the kinesin spindle protein KSP/Eg5 (ATPase, malachite green)
Condition info: 10 nM KSP motor domain, 500 μM ATP, 2 h RT
Measured property: IC50 (nM)
Answer in nM, number only, no unit symbol.

Please review the entries below; each comes with its answer.
Compound	IC50, nM
CC(C)(C)[C@H](c1nn(-c2cc(F)ccc2F)cc1Cc1ccccc1)N(CC[C@H](N)C(=O)NNC(=O)CCCCCN1C(=O)CC(SC[C@H](N)C(=O)O)C1=O)C(=O)CO.O=C(O)C(F)(F)F (stereo partly drawn)	0.778
Cc1ccc(C(=O)N(CCCN)[C@@H](c2cc(-c3cc(F)ccc3F)cn2Cc2ccccc2)C(C)(C)C)cc1	1.13

Just so you know, measured IC50 for CC(C)(C)[C@H](c1nn(-c2cc(F)ccc2F)cc1Cc1ccccc1)N(CCCN)C(=O)c1ccc(N)cc1 came out at 1.78

----------
Experimental system: human kinesin spindle protein KSP/Eg5 (Homo sapiens, UniProt P52732)
Construct: The motor domain of the human kinesin spindle protein KSP/Eg5
Sequence (P52732 18-359 limits assumed): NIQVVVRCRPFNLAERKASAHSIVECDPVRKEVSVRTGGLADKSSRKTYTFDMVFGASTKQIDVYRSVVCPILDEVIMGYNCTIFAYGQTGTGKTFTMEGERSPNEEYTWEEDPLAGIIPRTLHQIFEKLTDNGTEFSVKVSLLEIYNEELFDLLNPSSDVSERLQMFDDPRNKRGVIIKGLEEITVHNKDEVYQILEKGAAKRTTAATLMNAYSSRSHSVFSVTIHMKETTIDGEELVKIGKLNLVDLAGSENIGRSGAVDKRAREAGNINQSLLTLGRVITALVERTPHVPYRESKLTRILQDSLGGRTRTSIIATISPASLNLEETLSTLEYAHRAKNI
Test description: Inhibition of the kinesin spindle protein KSP/Eg5 (ATPase, malachite green)
Condition info: 10 nM KSP motor domain, 500 μM ATP, 2 h RT
Measured property: pIC50
Hey, just a heads up that pIC50 is the negative log base 10 of the concentration in molar.

Some solved cases for reference:
Compound	pIC50
COCC(=O)N(CCCN)[C@@H](c1nn(-c2cc(F)ccc2F)cc1Cc1ccccc1)C(C)(C)C [Example 182]	7.98
CCOCC(=O)N(CCCN)[C@@H](c1nn(-c2cc(F)ccc2F)cc1Cc1ccccc1)C(C)(C)C [Example 185]	7.74
Cc1ccc(C(=O)N(CCCN)[C@@H](c2nn(-c3cc(F)ccc3F)cc2Cc2ccccc2)C(C)(C)C)cc1 [Example 184]	7.84

// below: pIC50 requested for another compound
# pIC50 (compound: CC(C)[C@H](NC(=O)CCNC(=O)[C@@H](N)CCN(C(=O)CO)[C@@H](c1nc(-c2cc(F)ccc2F)cn1Cc1ccccc1)C(C)(C)C)C(=O)N[C@@H](CCCNC(N)=O)C(=O)Nc1ccc(CC(=O)NCCN2C(=O)CC(SC[C@H](N)C(=O)O)C2=O)cc1 (stereo partly shown) [Example 69] ) is 8.32

----------
Listing of recorded Papp B→A at 2 h by entry.
Test description: Cell permeability, flux assay using Caco-2 cells
Condition info: human, Caco-2

Molecule	Papp B→A at 2 h
CC(C)(C)[C@H](c1nc(-c2cc(F)ccc2F)cn1Cc1ccccc1)N(CC[C@H](N)C(=O)NCCC(=O)NCCN1C(=O)CC(SC[C@H](N)C(=O)O)C1=O)C(=O)CO.O=C(O)C(F)(F)F (some centres unmarked) [Example 130]	1 ×10⁻⁶ cm/s
CC(C)(C)[C@H](c1nc(-c2cc(F)ccc2F)cn1Cc1ccccc1)N(CC[C@H](N)C(=O)NCCC(=O)Nc1ccc(N2C(=O)CC(SC[C@H](N)C(=O)O)C2=O)cc1)C(=O)CO (some centres unmarked) [Example 66]	2.7 ×10⁻⁶ cm/s
CC(C)(C)[C@H](c1cc(-c2cc(F)ccc2F)cn1Cc1ccccc1)N(CC[C@H](N)C(=O)NCCC(=O)NCCN1C(=O)CC(SC[C@H](N)C(=O)O)C1=O)C(=O)CO.O=C(O)C(F)(F)F (some centres unmarked) [Example 133]	0.43 ×10⁻⁶ cm/s
CC(C)(C)[C@H](c1nc(-c2cc(F)ccc2F)cn1Cc1ccccc1)N(CC[C@H](N)C(=O)NCCCC[C@H](N)C(=O)O)C(=O)CO.O=C(O)C(F)(F)F [Example 59]	2.2 ×10⁻⁶ cm/s
C[C@H](NC(=O)CCNC(=O)[C@@H](N)CCN(C(=O)CO)[C@@H](c1nn(-c2cc(F)ccc2F)cc1Cc1ccccc1)C(C)(C)C)C(=O)N[C@@H](CCCNC(N)=O)C(=O)Nc1ccc(N2C(=O)CC(SC[C@H](N)C(=O)O)C2=O)cc1.O=C(O)C(F)(F)F (some centres unmarked) [Example 132]	0.16 ×10⁻⁶ cm/s
CC(C)[C@H](NC(=O)CCCCCN1C(=O)CC(SC[C@H](N)C(=O)O)C1=O)C(=O)N[C@@H](CCCNC(N)=O)C(=O)N[C@@H](CCCCNC(=O)[C@@H](N)CCN(C(=O)CO)[C@@H](c1nn(-c2cc(F)ccc2F)cc1Cc1ccccc1)C(C)(C)C)C(=O)O (some centres unmarked) [Example 134]	0.29 ×10⁻⁶ cm/s
CC(C)[C@H](NC(=O)CCNC(=O)[C@@H](N)CCN(C(=O)CO)[C@@H](c1nc(-c2cc(F)ccc2F)cn1Cc1ccccc1)C(C)(C)C)C(=O)N[C@@H](CCCNC(N)=O)C(=O)O.O=C(O)C(F)(F)F [Example 72]	0.25 ×10⁻⁶ cm/s
CC(C)(C)[C@H](c1cc(-c2cc(F)ccc2F)cn1Cc1ccccc1)N(CCCN)C(=O)CSCCC(N)C(=O)O.O=C(O)C(F)(F)F.O=C(O)C(F)(F)F (some centres unmarked) [Example 232]	4.9 ×10⁻⁶ cm/s
CC(C)(C)[C@H](c1cc(-c2cc(F)ccc2F)cn1Cc1ccccc1)N(CC[C@H](N)C(=O)N[C@H]1CC[C@@H](C(=O)NCCN2C(=O)CC(SC[C@H](N)C(=O)O)C2=O)C1)C(=O)CO.O=C(O)C(F)(F)F (some centres unmarked) [Example 157]	0.77 ×10⁻⁶ cm/s
CC(C)(C)[C@H](c1nc(-c2cc(F)ccc2F)cn1Cc1ccccc1)N(CC[C@H](N)C(=O)NCCNC(=O)CSC[C@H](N)C(=O)O)C(=O)CO.O=C(O)C(F)(F)F [Example 97]	0.56 ×10⁻⁶ cm/s

Lab note: C[C@H](NC(=O)CCNC(=O)[C@@H](N)CCN(C(=O)CO)[C@@H](c1nc(-c2cc(F)ccc2F)cn1Cc1ccccc1)C(C)(C)C)C(=O)N[C@@H](CCCNC(N)=O)C(=O)Nc1ccc(N2C(=O)CC(SC[C@H](N)C(=O)O)C2=O)cc1 (some centres unmarked) [Example 68] gave Papp B→A at 2 h of 0.18 ×10⁻⁶ cm/s

# molecule CC(C)(C)[C@H](c1cc(-c2cc(F)ccc2F)cn1Cc1ccccc1)N(CC[C@H](N)C(=O)O)C(=O)CO.Cl [Example 197] ; its Papp B→A at 2 h = 9.3 ×10⁻⁶ cm/s

The recorded Papp B→A at 2 h for entry CC(C)(C)[C@H](c1cc(-c2cc(F)ccc2F)cn1Cc1ccccc1)N(CC[C@H](N)C(=O)NCCN)C(=O)CO.O=C(O)C(F)(F)F [Example 198] equals 51.9 ×10⁻⁶ cm/s

Noted for C[C@H](NC(=O)CCNC(=O)[C@@H](N)CCN(C(=O)CO)[C@@H](c1nc(-c2cc(F)ccc2F)cn1Cc1ccccc1)C(C)(C)C)C(=O)N[C@@H](CCCNC(N)=O)C(=O)Nc1ccc(CC(=O)NCCN2C(=O)CC(SC[C@H](N)C(=O)O)C2=O)cc1 (some centres unmarked) [Example 70] : its Papp B→A at 2 h reads 0.16 ×10⁻⁶ cm/s
